IC50 values for human mPGES-1 (Homo sapiens) compiled from several publications are listed below.
Numbers only, in µM.

Sample records with IC50:
Cc1cccc(C)c1-c1nc(O)nc(-c2ccc(CC(C)C)cc2)n1 = 0.45
CN(Cc1ccc(Cl)c(-c2nc(O)nc(-c3ccccc3)n2)c1)C(=O)C1CCCCC1 = 0.532
NS(=O)(=O)c1cc(F)ccc1NS(=O)(=O)/C=C/c1ccccc1C(F)(F)F = 4
NS(=O)(=O)c1ccccc1NS(=O)(=O)CCc1ccc(C2CCCO2)cc1 (centres unmarked) = 5.3
Cc1nc(-c2cccc(S(=O)(=O)Nc3ccccc3S(N)(=O)=O)c2)cs1 = 8.3

Go through the list and state IC50 for each entry.
1. Cc1ccc(C#N)c(-c2nc(O)nc(-c3ccc(C#Cc4ccccc4)cc3)n2)c1
2. CC(Cc1ccc(Cl)cc1)S(=O)(=O)Nc1cc(F)ccc1S(N)(=O)=O (centres unmarked)
3. CC(C)(C)NC(=O)Cc1ccc(Cl)c(-c2nc(O)nc(-c3ccc(C(F)(F)F)cc3)n2)c1
4. CC(C)(C)C#Cc1ccc(CCS(=O)(=O)Nc2ccccc2S(N)(=O)=O)cn1
5. CC(C)(C)C#Cc1ccc(C(=O)NS(=O)(=O)c2ccccc2S(N)(=O)=O)cc1OCCC(F)(F)F
6. O=C(NCc1ccc(Cl)c(-c2nc(O)nc(-c3ccc(OCC4CC4)cc3)n2)c1)C1CCC(F)(F)CC1
7. CC(C)Oc1ccc(-c2ccc3c(c2)c(Cl)c(C(=O)O)n3-c2ccc(OC(C)C)nc2)cc1
8. CC(C)COc1ccc(-c2nc(O)nc(-c3cc(CNC(=O)C(C)(C)C(F)(F)F)ccc3Cl)n2)cn1

[A]
0.0031
0.45
0.0023
0.68
0.03
0.0015
0.39
0.0016

Go through the list and state IC50 for each entry.
1. NS(=O)(=O)c1cc(Cl)ccc1NS(=O)(=O)c1cccc(Cl)c1Cl
2. NS(=O)(=O)c1ccccc1NS(=O)(=O)CCc1ccc(Cl)cc1OCCc1ccccc1
3. NS(=O)(=O)c1ccc(F)cc1NS(=O)(=O)/C=C/c1ccc(Br)cc1

[A]
5.5
0.00696
0.31

[Q] Let me know recorded IC50 for NS(=O)(=O)c1ccccc1S(=O)(=O)NC(=O)c1ccc(C#CC2CCCC2)c(OCCOCC(F)(F)F)c1 , thanks.
[A] 0.0096
